- TESTED TARGET: SALL4 ZFC4 R900W (HT-SELEX) (Mus musculus, UniProt Q8BX22 870-940, R900W)
- Sequence: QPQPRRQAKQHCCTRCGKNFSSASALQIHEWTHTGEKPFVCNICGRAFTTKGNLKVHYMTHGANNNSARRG
- ASSAY NOTES: HT-SELEX; high values mean tight binding
- ASSAY CONDITIONS: protein: recombinant; vector His6-GST; dsDNA, one strand shown
Provide the recorded binding signal for the entries that follow.
# value in fold-change vs cycle 0; strip the unit string

Request: # query: binding signal | item ATAGCA | system: SALL4 ZFC4 R900W (HT-SELEX) (Mus musculus, UniProt Q8BX22 870-940, R900W)
Result: 1.21

Request: # query: binding signal | item GCATAA | system: SALL4 ZFC4 R900W (HT-SELEX) (Mus musculus, UniProt Q8BX22 870-940, R900W)
Result: 1.11

Request: # query: binding signal | item ATGCAA | system: SALL4 ZFC4 R900W (HT-SELEX) (Mus musculus, UniProt Q8BX22 870-940, R900W)
Result: 1.18

Request: # query: binding signal | item CAAATG | system: SALL4 ZFC4 R900W (HT-SELEX) (Mus musculus, UniProt Q8BX22 870-940, R900W)
Result: 1.17

Request: # query: binding signal | item AGGATG | system: SALL4 ZFC4 R900W (HT-SELEX) (Mus musculus, UniProt Q8BX22 870-940, R900W)
Result: 1.04
